The reported numbers originate from the Kinase Knowledgebase extract (Sharma et al. 2016).

# Target Under Test: EGFR (human) (UniProt P00533)
# Sequence (P00533 whole entry, looked up): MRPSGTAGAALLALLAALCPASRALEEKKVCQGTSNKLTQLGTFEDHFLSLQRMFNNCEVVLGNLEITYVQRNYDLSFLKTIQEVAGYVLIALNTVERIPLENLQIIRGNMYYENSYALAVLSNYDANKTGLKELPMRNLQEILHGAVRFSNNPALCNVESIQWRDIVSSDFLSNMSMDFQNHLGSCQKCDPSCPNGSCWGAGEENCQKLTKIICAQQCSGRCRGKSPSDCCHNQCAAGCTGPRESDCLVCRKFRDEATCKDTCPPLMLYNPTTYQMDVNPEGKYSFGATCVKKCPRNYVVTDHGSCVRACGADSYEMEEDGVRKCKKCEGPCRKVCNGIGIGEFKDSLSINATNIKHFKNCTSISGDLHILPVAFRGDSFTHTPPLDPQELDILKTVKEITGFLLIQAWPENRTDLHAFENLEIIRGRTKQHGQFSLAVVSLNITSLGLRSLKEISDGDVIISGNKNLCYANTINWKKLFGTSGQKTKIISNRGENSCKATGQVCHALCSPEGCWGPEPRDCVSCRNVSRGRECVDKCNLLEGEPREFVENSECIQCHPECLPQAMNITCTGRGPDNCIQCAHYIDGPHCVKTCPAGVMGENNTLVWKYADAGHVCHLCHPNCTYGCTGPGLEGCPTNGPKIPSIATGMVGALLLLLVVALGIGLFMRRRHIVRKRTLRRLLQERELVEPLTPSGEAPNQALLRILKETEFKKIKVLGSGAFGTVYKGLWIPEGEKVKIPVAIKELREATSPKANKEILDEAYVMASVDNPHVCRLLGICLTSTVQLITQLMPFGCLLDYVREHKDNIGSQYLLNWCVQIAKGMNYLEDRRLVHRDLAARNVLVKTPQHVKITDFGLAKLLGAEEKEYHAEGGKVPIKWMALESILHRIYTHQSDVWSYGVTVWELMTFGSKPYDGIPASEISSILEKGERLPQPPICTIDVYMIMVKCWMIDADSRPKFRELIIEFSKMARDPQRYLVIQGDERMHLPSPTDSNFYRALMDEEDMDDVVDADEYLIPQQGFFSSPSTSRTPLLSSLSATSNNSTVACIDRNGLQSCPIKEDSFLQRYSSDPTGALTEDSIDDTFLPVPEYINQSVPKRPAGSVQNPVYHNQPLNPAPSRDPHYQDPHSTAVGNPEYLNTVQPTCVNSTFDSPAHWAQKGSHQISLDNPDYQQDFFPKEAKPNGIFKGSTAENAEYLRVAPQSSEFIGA
pIC50: −log10 of the molar value.
Observed Property: pIC50

>>> assay_value("COc1cc2c(Nc3ccc(C#N)cc3F)ncnc2cc1OC/C=C/CN1CCCC1")
5.85
>>> assay_value("COc1cc2c(Nc3ccc(Cl)cc3F)ncnc2cc1OCCC1CCN(C)CC1")
6.70
>>> assay_value("COc1cc2c(Nc3cc(O)c(Cl)cc3F)ncnc2cc1OCC1CCN(C)CC1")
7.15
>>> assay_value("COc1cc2c(Nc3ccc(Br)cc3F)ncnc2cc1OCC1CCNCC1")
7.00
>>> assay_value("COc1cc2c(Nc3c(F)cc(Br)cc3F)ncnc2cc1OCC1CCNCC1")
6.40

(1) COc1cc2c(Nc3c(F)cc(Br)cc3F)ncnc2cc1OCC1CCN(C)CC1
(2) COc1cc2c(Nc3ccc(Br)cc3F)ncnc2cc1OC/C=C/CN1CCCC1
[ask] Kindly identify which of 1 and 2 has the larger recorded pIC50 value. Use the label to indicate which entry you chose.
[reply] 2

(P) COc1cc2c(Nc3cc(O)c(C)cc3F)ncnc2cc1OCC1CCN(C)CC1
(Q) COc1cc2c(Nc3ccc(Cl)cc3F)ncnc2cc1OCC1CCNCC1
[ask] Kindly identify which of P and Q has the larger recorded pIC50 value. Use the label to indicate which entry you chose.
[reply] Q
(Q: 7.00, P: 6.70)
